Collected Ratio WT-kd/clone-kd values appear next to each entry.
# Target system: T1, canine NGF tagged at the C-terminus with the Flag tag (canine, UniProt A0A8I3PYI3 122-241)
# T1 construct: mature; Expressed with baculovirus technology; also called feline NGF (processed form identical)
# T1 sequence (A0A8I3PYI3 entry or part of it): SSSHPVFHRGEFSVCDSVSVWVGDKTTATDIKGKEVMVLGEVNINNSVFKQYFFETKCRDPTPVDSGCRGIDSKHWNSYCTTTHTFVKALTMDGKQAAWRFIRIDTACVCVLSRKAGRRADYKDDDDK
# Assay overview: SPR off-rate screen, Fab-SASA on BSA chip
Enter a number only.

A selection of reference data follows.
Binder	Ratio WT-kd/clone-kd
felinized clone 101 Fab-SASA variant S35V (VH) (Fab, V domains shown, not shown: small tags and cut ends) VH: DVQLVESGGDLVKPGGSLRLTCVASGLSLTSSSMVWVRQAPGKGLQWVSTIYSNGGTYYTDSVKGRFTISKDNAENTLYLQMNNLKTEDTATYYCASIYYYDADYLHWYFDFWGQGALVTVSS VL: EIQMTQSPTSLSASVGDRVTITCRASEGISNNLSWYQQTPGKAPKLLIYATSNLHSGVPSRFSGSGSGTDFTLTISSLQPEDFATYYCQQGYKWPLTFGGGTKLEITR	2.62
felinized clone 101 Fab-SASA variant D104Q (VH) (Fab, V domains shown, not shown: small tags and cut ends) VH: DVQLVESGGDLVKPGGSLRLTCVASGLSLTSSSMSWVRQAPGKGLQWVSTIYSNGGTYYTDSVKGRFTISKDNAENTLYLQMNNLKTEDTATYYCASIYYYDAQYLHWYFDFWGQGALVTVSS VL: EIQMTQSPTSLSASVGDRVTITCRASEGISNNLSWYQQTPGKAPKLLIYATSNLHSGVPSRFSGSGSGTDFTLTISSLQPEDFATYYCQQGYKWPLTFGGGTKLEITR	1.97

# next binder below
felinized clone 101 Fab-SASA variant Y101H (VH) (Fab, V domains shown, not shown: small tags and cut ends) VH: DVQLVESGGDLVKPGGSLRLTCVASGLSLTSSSMSWVRQAPGKGLQWVSTIYSNGGTYYTDSVKGRFTISKDNAENTLYLQMNNLKTEDTATYYCASIYYHDADYLHWYFDFWGQGALVTVSS VL: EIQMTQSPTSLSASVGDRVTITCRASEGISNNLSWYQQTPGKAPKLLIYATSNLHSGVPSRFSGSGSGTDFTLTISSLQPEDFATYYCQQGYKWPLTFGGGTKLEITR has a reported Ratio WT-kd/clone-kd of 1.9
